Listed here are compounds together with their documented T/C.
Test system: BDF1 mice, P388 leukemia ip, median survival T/C
assay: NCI In Vivo Anticancer Drug Screen. Data for tumor model P388 Leukemia (intraperitoneal) in B6D2F1 (BDF1) mice
condition_context: endpoint: median survival time; dose: 50.0 mg/kg/injection; schedule: Q04DX003 (ip); vehicle: water; higher = longer survival
Toxic doses and inconclusive results are not listed.

{"columns": ["compound", "T/C"],
 "data": [
  ["CS(=O)c1ncc2cnccn12 (centres undefined)", "100 % of control"],
  ["O=C(N=c1cc(-c2ccc(Cl)cc2)ss1)C(Cc1ccccc1)N1C(=O)c2ccccc2C1=O (centres undefined)", "104 % of control"],
  ["NCCCn1c2ccccc2c2cnccc21", "107 % of control"]
]}

Per the record, COc1cccc2c1C(=O)c1c(O)c3c(c(O)c1C2=O)CC(O)(/C(C)=N\NC(=O)N/N=C(\C)C1(O)Cc2c(O)c4c(c(O)c2C(OC2CC(N)C(O)C(C)O2)C1)C(=O)c1c(OC)cccc1C4=O)CC3OC1CC(N)C(O)C(C)O1 (centres undefined) has T/C of 153 % of control

###

Listed here are compounds together with their documented T/C.
Tested on: BDF1 mice, P388 leukemia ip, median survival T/C
assay: NCI In Vivo Anticancer Drug Screen. Data for tumor model P388 Leukemia (intraperitoneal) in B6D2F1 (BDF1) mice
condition_context: endpoint: median survival time; dose: 4.0 mg/kg/injection; schedule: Q01DX009 (ip); vehicle: Klucel (hydroxypropylcellulose) (HPC); higher = longer survival
Toxic doses and inconclusive results are not listed.

The following compounds have reported results that may help.
{"columns": ["compound", "T/C"],
 "data": [
  ["C=C1CC(OC(C)=O)C2C(OC(=O)C2(C)OC(=O)/C(C)=C\\C)C2C(C)=CC(=O)C12 (stereo unspecified)", "100 % of control"],
  ["COC(=O)[C@@H]1[C@@H](O)[C@H](OC(=O)c2cc(OC)c(OC)c(OC)c2)C[C@@H]2CN3CCc4c([nH]c5ccccc45)[C@H]3C[C@@H]21", "100 % of control"]
]}

Per the record, `Nc1nc(SN=Nc2ccc(S(=O)(=O)O)cc2)c2[nH]cnc2n1` has T/C of 113 % of control

Per the record, `C/C(=C\c1ccccc1)[N+](=O)[O-]` has T/C of 101 % of control

Per the record, C=C1C(=O)OC2C1C(OC(=O)/C(C)=C/CO)C/C(C)=C/CCC1(CO)OC21 (stereo unspecified) has T/C of 100 % of control

Per the record, CCc1oc(=O)c(Cc2c(OC(C)=O)cc(OC(C)=O)c3c2OC(c2ccccc2)CC3=O)c(OC(C)=O)c1C (stereo unspecified) has T/C of 93 % of control

###

System: BDF1 mice, P388 leukemia ip, median survival T/C
assay: NCI In Vivo Anticancer Drug Screen. Data for tumor model P388 Leukemia (intraperitoneal) in B6D2F1 (BDF1) mice
condition_context: endpoint: median survival time; dose: 200.0 mg/kg/injection; schedule: Q01DX009 (ip); vehicle: saline; higher = longer survival
Inconclusive results and toxic doses are left out.
measured_quantity: T/C

{"columns": ["compound", "T/C"],
 "data": [
  ["Cc1[nH]c(=O)[nH]c(=O)c1/C=C/C(=O)NC(CO)CC(C)C (stereo not drawn)", "108 % of control"],
  ["CCOC(N)=O", "90 % of control"],
  ["CCN(CCNc1ccc(C)c2sc3cc(Cl)ccc3c(=O)c12)CC(C)O (stereo not drawn)", "104 % of control"],
  ["CC(C)CC(NC(=O)CN)C(=O)O (stereo not drawn)", "118 % of control"],
  ["CC(N)C(=O)O (stereo not drawn)", "108 % of control"]
]}

Turning to the following compound.
Per the record, `CCCC1CC[N-]CC1.CCCC1CC[N-]CC1.CCCC1CC[N-]CC1.CCCC1CC[N-]CC1.O=C([O-])C(=O)[O-].O=C([O-])C(=O)[O-].[Cl][Rh][Cl].[Nb+5].[O-][O-].[O-][O-]` has T/C of 99 % of control
